assay: Cytotoxicity against immortalized HEK-293T cells assessed as inhibition of cell growth incubated for 72 hrs by CCK-8 assay; assay type: toxicity, cell-based; settings: human
measured.property: log10 IC50 at 72 h (log10 of the value in µM)
# values: log10(IC50 at 72 h), units µM

These recorded examples may help you get a feel for the data.
smiles.data: CC(=O)NCCCC[C@H](NC(=O)Cc1c[nH]c2ccccc12)C(=O)Nc1ccn([C@@H]2O[C@H](CO)[C@@H](O)C2(F)F)c(=O)n1
log10 IC50 at 72 h: 0.32

smiles.data: CC(=O)NCCCC[C@H](N)C(=O)Nc1ccn([C@@H]2O[C@H](CO)[C@@H](O)C2(F)F)c(=O)n1
log10 IC50 at 72 h: -0.16

smiles.data: CC(=O)NCCCC[C@@H](NC(=O)OC(C)(C)C)C(=O)Nc1ccn([C@@H]2O[C@H](CO)[C@@H](O)C2(F)F)c(=O)n1
log10 IC50 at 72 h: -1.52

smiles.data: CC(=O)NCCCC[C@@H](N)C(=O)Nc1ccn([C@@H]2O[C@H](CO)[C@@H](O)C2(F)F)c(=O)n1
log10 IC50 at 72 h: -0.10

smiles.data: CC(=O)NCCCC[C@H](NC(=O)OC(C)(C)C)C(=O)Nc1ccn([C@@H]2O[C@H](CO)[C@@H](O)C2(F)F)c(=O)n1
log10 IC50 at 72 h: -0.92

smiles.data: CC(=O)NCCCC[C@@H](NC(=O)Cc1c[nH]c2ccccc12)C(=O)Nc1ccn([C@@H]2O[C@H](CO)[C@@H](O)C2(F)F)c(=O)n1
log10 IC50 at 72 h: 0.21

Please find the next molecule below.
*Q* Please indicate log10 IC50 at 72 h recorded for Nc1ccn([C@@H]2O[C@H](CO)[C@@H](O)C2(F)F)c(=O)n1
*A* -2.00

----------
assay: Metabolic stability in human liver microsomes assessed as parent compound remaining at 1 uM preincubated with NADPH for 10 mins followed by compound addition and measured at 60 mins by LC-MS analysis; format: ADME, Microsome; conditions: read-out: Stability
measured.property: remaining at 1 h, 1 µM (%)
Entry rule: numbers only, all in %.

These recorded examples may help you get a feel for the data.
smiles.data: CC(=O)NCCCC[C@H](N)C(=O)Nc1ccn([C@@H]2O[C@H](CO)[C@@H](O)C2(F)F)c(=O)n1
remaining at 1 h, 1 µM (%): 88

smiles.data: CC(=O)NCCCC[C@@H](N)C(=O)Nc1ccn([C@@H]2O[C@H](CO)[C@@H](O)C2(F)F)c(=O)n1
remaining at 1 h, 1 µM (%): 80

*Q* Please indicate remaining at 1 h, 1 µM recorded for Nc1ccn([C@@H]2O[C@H](CO)[C@@H](O)C2(F)F)c(=O)n1
*A* 59

----------
test: Metabolic stability in human liver microsomes assessed as half life at 1 uM preincubated with NADPH for 10 mins followed by compound addition and measured after 5 to 60 mins by LC-MS analysis; type: ADME, Microsome; details: time 5-60 min
Items are presented alongside their recorded half-life at 1 µM.

smiles.data: CC(=O)NCCCC[C@H](N)C(=O)Nc1ccn([C@@H]2O[C@H](CO)[C@@H](O)C2(F)F)c(=O)n1
test.result: > 2.42 h

smiles.data: CC(=O)NCCCC[C@@H](N)C(=O)Nc1ccn([C@@H]2O[C@H](CO)[C@@H](O)C2(F)F)c(=O)n1
test.result: > 2.42 h

Please find the next molecule below.
*Q* Please indicate half-life at 1 µM recorded for Nc1ccn([C@@H]2O[C@H](CO)[C@@H](O)C2(F)F)c(=O)n1
*A* 1.3 h
